Measured fold reduction in affinity relative to [M]PTH(1-14) accompanies every entry in the list below.
Target: T1, wild-type human PTH/PTHrP receptor (hP1R-WT) (human, UniProt Q03431 27-593)
T1 construct: whole, on cells; HKRK-B28 cells express ~280,000 receptors per cell; also called PTH-1 receptor; PTH-1R
T1 sequence (looked up): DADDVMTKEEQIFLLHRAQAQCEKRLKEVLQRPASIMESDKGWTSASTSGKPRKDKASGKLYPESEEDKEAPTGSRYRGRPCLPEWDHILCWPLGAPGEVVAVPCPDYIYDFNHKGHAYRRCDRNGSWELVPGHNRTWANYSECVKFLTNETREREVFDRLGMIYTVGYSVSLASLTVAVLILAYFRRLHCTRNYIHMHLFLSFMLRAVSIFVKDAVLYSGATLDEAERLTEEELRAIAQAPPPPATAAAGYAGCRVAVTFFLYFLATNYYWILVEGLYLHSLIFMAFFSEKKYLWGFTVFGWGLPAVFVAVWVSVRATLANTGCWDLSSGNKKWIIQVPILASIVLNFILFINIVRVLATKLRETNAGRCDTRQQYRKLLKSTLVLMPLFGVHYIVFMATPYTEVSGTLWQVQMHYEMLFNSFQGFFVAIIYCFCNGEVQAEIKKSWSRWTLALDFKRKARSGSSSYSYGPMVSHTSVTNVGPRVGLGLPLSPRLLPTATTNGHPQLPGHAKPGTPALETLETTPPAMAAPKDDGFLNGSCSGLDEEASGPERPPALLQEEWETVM
Experiment: competition binding, 125I-[M]PTH(1-21) tracer, HKRK-B28 cells
Square brackets hold non-standard residues; d marks the D form. Ends that are not written are not given here. hArg = N=C(N)NCCCC[C@H](N)C(=O)O; Aib = CC(C)(N)C(=O)O

Example cases with answers are listed next.
binder	endpoint_result
AVAEIQLMHQ[hArg][Aib]KW-NH2 (N-terminus assumed; SMILES CC[C@H](C)[C@H](NC(=O)[C@H](CCC(=O)O)NC(=O)[C@H](C)NC(=O)[C@@H](NC(=O)[C@H](C)N)C(C)C)C(=O)N[C@@H](CCC(N)=O)C(=O)N[C@@H](CC(C)C)C(=O)N[C@@H](CCSC)C(=O)N[C@@H](Cc1c[nH]cn1)C(=O)N[C@@H](CCC(N)=O)C(=O)N[C@@H](CCCCNC(=N)N)C(=O)NC(C)(C)C(=O)N[C@@H](CCCCN)C(=O)N[C@@H](Cc1c[nH]c2ccccc12)C(N)=O, Aib scan of [M]PTH(1-14); Aib replaces the Ala^12 of [M]; also called 633 Aib-12) [[Aib^12,M]PTH(1-14)]	< 10 fold
AVAEI[Aib]LMHQ[hArg]AKW-NH2 (N-terminus assumed; SMILES CC[C@H](C)[C@H](NC(=O)[C@H](CCC(=O)O)NC(=O)[C@H](C)NC(=O)[C@@H](NC(=O)[C@H](C)N)C(C)C)C(=O)NC(C)(C)C(=O)N[C@@H](CC(C)C)C(=O)N[C@@H](CCSC)C(=O)N[C@@H](Cc1c[nH]cn1)C(=O)N[C@@H](CCC(N)=O)C(=O)N[C@@H](CCCCNC(=N)N)C(=O)N[C@@H](C)C(=O)N[C@@H](CCCCN)C(=O)N[C@@H](Cc1c[nH]c2ccccc12)C(N)=O, Aib scan of [M]PTH(1-14); also called 627 Aib-6) [[Aib^6,M]PTH(1-14)]	~3 fold
AVA[Aib]IQLMHQ[hArg]AKW-NH2 (N-terminus assumed; SMILES CC[C@H](C)[C@H](NC(=O)C(C)(C)NC(=O)[C@H](C)NC(=O)[C@@H](NC(=O)[C@H](C)N)C(C)C)C(=O)N[C@@H](CCC(N)=O)C(=O)N[C@@H](CC(C)C)C(=O)N[C@@H](CCSC)C(=O)N[C@@H](Cc1c[nH]cn1)C(=O)N[C@@H](CCC(N)=O)C(=O)N[C@@H](CCCCNC(=N)N)C(=O)N[C@@H](C)C(=O)N[C@@H](CCCCN)C(=O)N[C@@H](Cc1c[nH]c2ccccc12)C(N)=O, Aib scan of [M]PTH(1-14); also called 625 Aib-4) [[Aib^4,M]PTH(1-14)]	> 10 fold
AVAEIQLMHQ[hArg]A[Aib]W-NH2 (N-terminus assumed; SMILES CC[C@H](C)[C@H](NC(=O)[C@H](CCC(=O)O)NC(=O)[C@H](C)NC(=O)[C@@H](NC(=O)[C@H](C)N)C(C)C)C(=O)N[C@@H](CCC(N)=O)C(=O)N[C@@H](CC(C)C)C(=O)N[C@@H](CCSC)C(=O)N[C@@H](Cc1c[nH]cn1)C(=O)N[C@@H](CCC(N)=O)C(=O)N[C@@H](CCCCNC(=N)N)C(=O)N[C@@H](C)C(=O)NC(C)(C)C(=O)N[C@@H](Cc1c[nH]c2ccccc12)C(N)=O, Aib scan of [M]PTH(1-14); also called 634 Aib-13) [[Aib^13,M]PTH(1-14)]	< 10 fold
AVAEIQLMHQ[hArg]AK[Aib]-NH2 (N-terminus assumed; SMILES CC[C@H](C)[C@H](NC(=O)[C@H](CCC(=O)O)NC(=O)[C@H](C)NC(=O)[C@@H](NC(=O)[C@H](C)N)C(C)C)C(=O)N[C@@H](CCC(N)=O)C(=O)N[C@@H](CC(C)C)C(=O)N[C@@H](CCSC)C(=O)N[C@@H](Cc1c[nH]cn1)C(=O)N[C@@H](CCC(N)=O)C(=O)N[C@@H](CCCCNC(=N)N)C(=O)N[C@@H](C)C(=O)N[C@@H](CCCCN)C(=O)NC(C)(C)C(N)=O, Aib scan of [M]PTH(1-14); Aib replaces the Trp^14 of [M]; also called 635 Aib-14) [[Aib^14,M]PTH(1-14)]	< 10 fold
AVAEIQ[Aib]MHQ[hArg]AKW-NH2 (N-terminus assumed; SMILES CC[C@H](C)[C@H](NC(=O)[C@H](CCC(=O)O)NC(=O)[C@H](C)NC(=O)[C@@H](NC(=O)[C@H](C)N)C(C)C)C(=O)N[C@@H](CCC(N)=O)C(=O)NC(C)(C)C(=O)N[C@@H](CCSC)C(=O)N[C@@H](Cc1c[nH]cn1)C(=O)N[C@@H](CCC(N)=O)C(=O)N[C@@H](CCCCNC(=N)N)C(=O)N[C@@H](C)C(=O)N[C@@H](CCCCN)C(=O)N[C@@H](Cc1c[nH]c2ccccc12)C(N)=O, Aib scan of [M]PTH(1-14); also called 628 Aib-7) [[Aib^7,M]PTH(1-14)]	> 10 fold
AVAEIQLM[Aib]Q[hArg]AKW-NH2 (N-terminus assumed; SMILES CC[C@H](C)[C@H](NC(=O)[C@H](CCC(=O)O)NC(=O)[C@H](C)NC(=O)[C@@H](NC(=O)[C@H](C)N)C(C)C)C(=O)N[C@@H](CCC(N)=O)C(=O)N[C@@H](CC(C)C)C(=O)N[C@@H](CCSC)C(=O)NC(C)(C)C(=O)N[C@@H](CCC(N)=O)C(=O)N[C@@H](CCCCNC(=N)N)C(=O)N[C@@H](C)C(=O)N[C@@H](CCCCN)C(=O)N[C@@H](Cc1c[nH]c2ccccc12)C(N)=O, Aib scan of [M]PTH(1-14); also called 630 Aib-9) [[Aib^9,M]PTH(1-14)]	> 10 fold

Now for the binder whose fold reduction in affinity relative to [M]PTH(1-14) we want.
Request: Identify fold reduction in affinity relative to [M]PTH(1-14) associated with the binder AVAEIQL[Aib]HQ[hArg]AKW-NH2 (N-terminus assumed; SMILES CC[C@H](C)[C@H](NC(=O)[C@H](CCC(=O)O)NC(=O)[C@H](C)NC(=O)[C@@H](NC(=O)[C@H](C)N)C(C)C)C(=O)N[C@@H](CCC(N)=O)C(=O)N[C@@H](CC(C)C)C(=O)NC(C)(C)C(=O)N[C@@H](Cc1c[nH]cn1)C(=O)N[C@@H](CCC(N)=O)C(=O)N[C@@H](CCCCNC(=N)N)C(=O)N[C@@H](C)C(=O)N[C@@H](CCCCN)C(=O)N[C@@H](Cc1c[nH]c2ccccc12)C(N)=O, Aib scan of [M]PTH(1-14); also called 629 Aib-8) [[Aib^8,M]PTH(1-14)]
Response: > 10 fold
